sequences and their reported PBM binding z-score
- Tested on: LXRa:RXRa (NR concentration 270 nM, RXRa partner concentration 90 nM)
- protocol.text: PBM binding z-score (relative to random genomic background probes); higher = stronger binding; sequences stand for … in GC…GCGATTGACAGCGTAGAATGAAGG
property: PBM binding z-score

macromolecule.sequence	assay.system	property	recorded.value
CCTCGGAGGACAACAGGGGGTCAGAGCTGCCAGA	LXRa:RXRa (NR concentration 270 nM, RXRa partner concentration 90 nM)	PBM binding z-score	2.48
TGAATGAGGTTAAGGATCAGGGAACGTGGCGTCG	LXRa:RXRa (NR concentration 270 nM, RXRa partner concentration 90 nM)	PBM binding z-score	1.74
AGAATGAGGTTACCAATGATCAGGGAAACGCTTG	LXRa:RXRa (NR concentration 270 nM, RXRa partner concentration 90 nM)	PBM binding z-score	3.21
ACTAGCAGGCCATGTTTGGGTCACTCAAACAAAG	LXRa:RXRa (NR concentration 270 nM, RXRa partner concentration 90 nM)	PBM binding z-score	-0.058
GTACCAAGTTGAATAGGTCGTTGATGAGTAGGCG	LXRa:RXRa (NR concentration 270 nM, RXRa partner concentration 90 nM)	PBM binding z-score	0.289
CTAGAAAGGTCGGTTGAGGTGAGTATACGGATAA	LXRa:RXRa (NR concentration 270 nM, RXRa partner concentration 90 nM)	PBM binding z-score	1.64
ATCTCTAGGCAAGACTCAGTTCAGTGAAGAACGC	LXRa:RXRa (NR concentration 270 nM, RXRa partner concentration 90 nM)	PBM binding z-score	0.0146
CGGCCAAGGTCAATGCTAGGTCAGTGAAAGCATT	LXRa:RXRa (NR concentration 270 nM, RXRa partner concentration 90 nM)	PBM binding z-score	5.47
CTACCAAGGTGAACTAGGTCGTTGATTACTATTC	LXRa:RXRa (NR concentration 270 nM, RXRa partner concentration 90 nM)	PBM binding z-score	1
TCGAGTAGGTTACCAACGGGGCATTCAGCTTTCT	LXRa:RXRa (NR concentration 270 nM, RXRa partner concentration 90 nM)	PBM binding z-score	1.75
CTCCCAAGGTGAACAAGGTCGTTGATTACTATTC	LXRa:RXRa (NR concentration 270 nM, RXRa partner concentration 90 nM)	PBM binding z-score	1.47
AGAACGGGGGCACGCTGAGTTGATAGCAGAGTAG	LXRa:RXRa (NR concentration 270 nM, RXRa partner concentration 90 nM)	PBM binding z-score	2.67
ATCTCTAGGTAAAGATAGTTCAGTGTATGCAAAT	LXRa:RXRa (NR concentration 270 nM, RXRa partner concentration 90 nM)	PBM binding z-score	4.16
CGTCCAAGGTCATAGGATGTCAGTGAAGACAGAT	LXRa:RXRa (NR concentration 270 nM, RXRa partner concentration 90 nM)	PBM binding z-score	5.86
CGAGACAGGTGAGAAGGTAACTCAGCCTCGATTA	LXRa:RXRa (NR concentration 270 nM, RXRa partner concentration 90 nM)	PBM binding z-score	-0.124
GCTTACGGGTCAAAGGTTTTAGCATGAATAGAAT	LXRa:RXRa (NR concentration 270 nM, RXRa partner concentration 90 nM)	PBM binding z-score	4.06
ATCTCTAGGTAAAGCTCAGTGAAAGATCGATAGA	LXRa:RXRa (NR concentration 270 nM, RXRa partner concentration 90 nM)	PBM binding z-score	0.0459
GCTGCTAGGTAAACTGATGGTCAGCTAAAGCTCG	LXRa:RXRa (NR concentration 270 nM, RXRa partner concentration 90 nM)	PBM binding z-score	-0.492
TCTTGTAGATCAAGCAGGTTAAGAGAGCCTGAGT	LXRa:RXRa (NR concentration 270 nM, RXRa partner concentration 90 nM)	PBM binding z-score	0.03
AGATTGAGGTTATTAAGATCAGGGAATTGCGGTC	LXRa:RXRa (NR concentration 270 nM, RXRa partner concentration 90 nM)	PBM binding z-score	1.28
ATCTATAGGTAACCAAGTTCAGTGAATGCCGAAC	LXRa:RXRa (NR concentration 270 nM, RXRa partner concentration 90 nM)	PBM binding z-score	0.814
CCGACTGGGGCAGACAGGTTACCATACCATCCGG	LXRa:RXRa (NR concentration 270 nM, RXRa partner concentration 90 nM)	PBM binding z-score	-0.476
CCTATTAGTTGACCATATGGGCAACCGAAGCTCG	LXRa:RXRa (NR concentration 270 nM, RXRa partner concentration 90 nM)	PBM binding z-score	0.454
CTCGAAAGGTCGGTTGAGATGAGTATACGGATAA	LXRa:RXRa (NR concentration 270 nM, RXRa partner concentration 90 nM)	PBM binding z-score	1.27
CCTTACGGGTCACGAGATTATAGCACGACGAGCG	LXRa:RXRa (NR concentration 270 nM, RXRa partner concentration 90 nM)	PBM binding z-score	4.05
GCTAGCAGGTCATTTGGGTCACTCAATGACGGGC	LXRa:RXRa (NR concentration 270 nM, RXRa partner concentration 90 nM)	PBM binding z-score	3.76
CCTAGCAGGCCATGGTCACTCAAGCATTTCGCTT	LXRa:RXRa (NR concentration 270 nM, RXRa partner concentration 90 nM)	PBM binding z-score	-0.369
CCTACTGGGCCAACGGTCATTGATTCCAATGCTC	LXRa:RXRa (NR concentration 270 nM, RXRa partner concentration 90 nM)	PBM binding z-score	-0.079
TGATATAGGTAAAAGGTGAAAGTCGGTGTGGTAA	LXRa:RXRa (NR concentration 270 nM, RXRa partner concentration 90 nM)	PBM binding z-score	1.59
TCTCGGAGAACACGAAGGTCAGAGCTTTCCAGAG	LXRa:RXRa (NR concentration 270 nM, RXRa partner concentration 90 nM)	PBM binding z-score	0.775
ATCTCTAGGTAAAGTTCTGTGAAAGATCGATAGA	LXRa:RXRa (NR concentration 270 nM, RXRa partner concentration 90 nM)	PBM binding z-score	0.57
ATCTCTAGGTAAAAGTTGAGTGAATCCCGAGGAT	LXRa:RXRa (NR concentration 270 nM, RXRa partner concentration 90 nM)	PBM binding z-score	0.162
CCGACTGGGTCAAGGTTACCATAACGCACAGCCA	LXRa:RXRa (NR concentration 270 nM, RXRa partner concentration 90 nM)	PBM binding z-score	2.1
CATCCAGGGTCAGCTAGGCCAGAGTAGGGACGGC	LXRa:RXRa (NR concentration 270 nM, RXRa partner concentration 90 nM)	PBM binding z-score	3.12
AGAATGAGGCTATACGTAGATCAGGGAAGAAAGT	LXRa:RXRa (NR concentration 270 nM, RXRa partner concentration 90 nM)	PBM binding z-score	-0.526
TAGCCCAGGTCATGGGCCAGTATACCACGCGAAC	LXRa:RXRa (NR concentration 270 nM, RXRa partner concentration 90 nM)	PBM binding z-score	3.68
TGTCAAAGTTCAAAGGTAACGCAAGTATCCACAC	LXRa:RXRa (NR concentration 270 nM, RXRa partner concentration 90 nM)	PBM binding z-score	6.39
CGAACTAGGTCATCCAGGACAGTGATTACATTGA	LXRa:RXRa (NR concentration 270 nM, RXRa partner concentration 90 nM)	PBM binding z-score	2.8
CGTCCAAGGTCAAAGGTCCGTGAAGAGATGACGG	LXRa:RXRa (NR concentration 270 nM, RXRa partner concentration 90 nM)	PBM binding z-score	5.64
CCTGCTAGGTCAATGGTCAGCTTAAGCAGCTCGC	LXRa:RXRa (NR concentration 270 nM, RXRa partner concentration 90 nM)	PBM binding z-score	2.28
TGAATTAGGTTAAAGATCAGGGAACGTGGCGTCG	LXRa:RXRa (NR concentration 270 nM, RXRa partner concentration 90 nM)	PBM binding z-score	0.724
TCATATAGGTAAAGGTGAAAGTTGAACGATATGA	LXRa:RXRa (NR concentration 270 nM, RXRa partner concentration 90 nM)	PBM binding z-score	1.75
TCTTGTAGATCAATAGAGGTTAAGACAGTGCGCT	LXRa:RXRa (NR concentration 270 nM, RXRa partner concentration 90 nM)	PBM binding z-score	3.16
CCTGATAGGTCAATGGTCAGCTAAAGCAGCTCGC	LXRa:RXRa (NR concentration 270 nM, RXRa partner concentration 90 nM)	PBM binding z-score	3.98
CGAACCAGGTCATTGACAGGACAGTGAATAGTAA	LXRa:RXRa (NR concentration 270 nM, RXRa partner concentration 90 nM)	PBM binding z-score	3.65
GCGGCTAGGTCAGGTTGGTCAGCTAACGGGTACG	LXRa:RXRa (NR concentration 270 nM, RXRa partner concentration 90 nM)	PBM binding z-score	0.573
ATATGTAGGGTAAGGGTCATTCAGGTTGGTTCGC	LXRa:RXRa (NR concentration 270 nM, RXRa partner concentration 90 nM)	PBM binding z-score	4.47
AGTCAAAGTTCGCTAGGTAACGTAAGATTCAGCT	LXRa:RXRa (NR concentration 270 nM, RXRa partner concentration 90 nM)	PBM binding z-score	0.248
TCTTGTAGATCAAGCAGGTTCAGAAAGCCTGAGT	LXRa:RXRa (NR concentration 270 nM, RXRa partner concentration 90 nM)	PBM binding z-score	0.179
CCAGACAGGTGAGAAGGTAACTCGGCCTCGATTA	LXRa:RXRa (NR concentration 270 nM, RXRa partner concentration 90 nM)	PBM binding z-score	0.14
TCATATAGGTAAAAGGTAAAAGTCGGTGTGGTAA	LXRa:RXRa (NR concentration 270 nM, RXRa partner concentration 90 nM)	PBM binding z-score	1.53
